target or system: smooth muscle strips of the urinary bladder (Cavia porcellus, UniProt H0W1Z3)
Construct: Smooth muscle strips of the urinary bladder and ileum (longitudinal muscle only) were dissected; from tissue; host or cells: guinea pig urinary bladder smooth muscle strips
Sequence (H0W1Z3 1-590): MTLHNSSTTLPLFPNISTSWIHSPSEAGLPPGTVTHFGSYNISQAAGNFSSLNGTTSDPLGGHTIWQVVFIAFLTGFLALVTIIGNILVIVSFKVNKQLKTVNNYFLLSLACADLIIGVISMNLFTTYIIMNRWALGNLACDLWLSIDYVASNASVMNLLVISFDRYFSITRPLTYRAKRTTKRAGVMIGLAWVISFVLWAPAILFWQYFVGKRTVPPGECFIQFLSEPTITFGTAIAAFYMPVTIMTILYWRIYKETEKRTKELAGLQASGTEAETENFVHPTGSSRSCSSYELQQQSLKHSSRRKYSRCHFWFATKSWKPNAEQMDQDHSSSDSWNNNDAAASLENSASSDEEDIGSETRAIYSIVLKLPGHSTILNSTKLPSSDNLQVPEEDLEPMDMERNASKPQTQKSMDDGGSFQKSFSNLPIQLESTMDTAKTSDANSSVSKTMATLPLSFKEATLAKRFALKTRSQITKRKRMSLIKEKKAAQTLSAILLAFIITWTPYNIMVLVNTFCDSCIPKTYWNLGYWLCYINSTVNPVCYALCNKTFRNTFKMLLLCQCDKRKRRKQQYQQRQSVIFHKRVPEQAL
measurement notes: Functional in vitro study: antimuscarinic activity (antagonism of carbachol contraction) on urinary bladder strips
Set-up: species or system guinea pig
condition description: read-out: Kb (dissociation constant for the antagonist)
measure: Kb (nM)

- Cc1ccc(C2=CN3CCC2CC3)o1: 61
- C1=C(c2occc2-c2ccccc2)C2CCN1CC2: 2.7
- CCc1ccc(C2=CN3CCC2CC3)o1: 31
- Cc1ccc(C2=CN3CCC2CC3)s1: 320
- COC(=O)c1ccc(C2=CN3CCC2CC3)o1: 2600
- C1=C(c2ccc(-c3ccccc3)o2)C2CCN1CC2: 1020
